# experimentSummary: Solubility of Compound 1 at room temperature in various solvents and solvent mixtures
# Format: physicochemical
# conditionInfo: organic solvent or mixture, solvent Acetonitrile

compound | solubility
CC[C@@H](CC#N)OC(=O)N[C@@H](C)c1cccc(NC(=O)Nc2ccc(-c3cnco3)c(OC)c2)c1 [Compound 1] | 1600 µg/mL

---

# experimentSummary: Solubility of Compound 1 at elevated temperatures in various solvents
# Format: physicochemical
# conditionInfo: organic solvent or mixture; solvent THF; Boiling point (65° C.)

smilesStructure | solubility [mg/mL]
CC[C@@H](CC#N)OC(=O)N[C@@H](C)c1cccc(NC(=O)Nc2ccc(-c3cnco3)c(OC)c2)c1 | 115

---

# experimentSummary: Solubility of Compound 1 at room temperature in various solvents and solvent mixtures
# Type: physicochemical
# conditionInfo: organic solvent or mixture, solvent EtOH
parameterMeasured: solubility

smilesStructure | endpointResult
CC[C@@H](CC#N)OC(=O)N[C@@H](C)c1cccc(NC(=O)Nc2ccc(-c3cnco3)c(OC)c2)c1 | 1600 µg/mL

---

# experimentSummary: Solubility of Compound 1 at elevated temperatures in various solvents
# Format: physicochemical
# conditionInfo: organic solvent or mixture; solvent MeOH; Boiling point (65° C.)

compound | solubility (mg/mL)
CC[C@@H](CC#N)OC(=O)N[C@@H](C)c1cccc(NC(=O)Nc2ccc(-c3cnco3)c(OC)c2)c1 [Compound 1] | 92

---

# experimentSummary: Solubility of Compound 1 at room temperature in various solvents and solvent mixtures
# Assay type: physicochemical
# conditionInfo: organic solvent or mixture, solvent 2-Butanone (MEK)
parameterMeasured: solubility (mg/mL)

smilesStructure | parameterMeasured | endpointResult
CC[C@@H](CC#N)OC(=O)N[C@@H](C)c1cccc(NC(=O)Nc2ccc(-c3cnco3)c(OC)c2)c1 | solubility | 10.5

---

# experimentSummary: Solubility of Compound 1 at elevated temperatures in various solvents
# Format: physicochemical
# conditionInfo: organic solvent or mixture; solvent MeOH; 40° C.
parameterMeasured: solubility (mg/mL)

smilesStructure | parameterMeasured | endpointResult
CC[C@@H](CC#N)OC(=O)N[C@@H](C)c1cccc(NC(=O)Nc2ccc(-c3cnco3)c(OC)c2)c1 | solubility | 33

---

# experimentSummary: Solubility of Compound 1 at elevated temperatures in various solvents
# Type: physicochemical
# conditionInfo: organic solvent or mixture; solvent Acetone; Boiling point (56° C.)

smilesStructure | solubility
CC[C@@H](CC#N)OC(=O)N[C@@H](C)c1cccc(NC(=O)Nc2ccc(-c3cnco3)c(OC)c2)c1 | 67 mg/mL

---

# experimentSummary: Solubility of Compound 1 at room temperature in various solvents and solvent mixtures
# Format: physicochemical
# conditionInfo: organic solvent or mixture, solvent Acetone
parameterMeasured: solubility

compound | parameterMeasured | endpointResult
CC[C@@H](CC#N)OC(=O)N[C@@H](C)c1cccc(NC(=O)Nc2ccc(-c3cnco3)c(OC)c2)c1 [Compound 1] | solubility | 11 mg/mL

---

# experimentSummary: Solubility of Compound 1 at room temperature in various solvents and solvent mixtures
# Format: physicochemical
# conditionInfo: aqueous with cosolvent or surfactant or cyclodextrin, solvent Acetone:H2O 20:80

compound | solubility
CC[C@@H](CC#N)OC(=O)N[C@@H](C)c1cccc(NC(=O)Nc2ccc(-c3cnco3)c(OC)c2)c1 [Compound 1] | < 8900 µg/mL

---

# experimentSummary: Solubility of Compound 1 at elevated temperatures in various solvents
# Format: physicochemical
# conditionInfo: organic solvent or mixture; solvent THF; 40° C.
parameterMeasured: solubility

compound | endpointResult
CC[C@@H](CC#N)OC(=O)N[C@@H](C)c1cccc(NC(=O)Nc2ccc(-c3cnco3)c(OC)c2)c1 [Compound 1] | 75 mg/mL
